tested on: SR leukemia; experiment: NCI tumour cell line growth inhibition, 48 h
TEST_READOUT: TGI

>>> obs_value("CCC(C)(C)c1ccc(OCCCCNC(=O)c2ccc3ccccc3c2O)c(C(C)(C)CC)c1")
"> 100 µM"
>>> obs_value("CC(c1ccccc1)N1CCN(C(C)c2ccccc2)CC1 (stereo not drawn)")
"> 100 µM"
>>> obs_value("CC1CC2CCCC(O)=C2C(=O)O1 (stereo not drawn)")
"> 100 µM"
>>> obs_value("NC(N)=NCCCC(=O)O")
"> 100 µM"
>>> obs_value("CN(C)C(=S)/N=c1\\sn(C)/c(=N\\C(=S)N(C)C)n1C")
"> 100 µM"
>>> obs_value("CSC1=N/C(=C\\c2ccc(C)cc2)C(=O)N1CN1CCCCC1")
"> 100 µM"
>>> obs_value("O=c1oc2cc(O)ccc2c(O)c1C(c1ccccc1)c1c(O)c2ccc(O)cc2oc1=O")
"> 100 µM"
>>> obs_value("COc1ccc(C2c3cn[nH]c3CC3CCCCC32)cc1 (stereo not drawn)")
"57.1 µM"
>>> obs_value("NNC(=O)CNc1cccc(Br)c1")
"> 100 µM"
>>> obs_value("Clc1ccc(-c2nnc3sc4nc5ccccc5c-4nn23)c(Cl)c1")
"> 100 µM"

Provide TGI values for the following items, in order.
1. O=C1C=C/C(=N\N=C(c2ccccc2)c2ccccc2)O1
2. O=C1OC(C2Cc3ccc4ccccc4c3C2=O)c2ccccc21 (stereo not drawn)
3. COc1c(O)c2c(=O)cc3c4c5c(cc(=O)c6c(O)c(OC)c(CC(C)O)c(c(c1CC(C)O)c24)c65)OCO3 (stereo not drawn)
4. CCOc1ccc(/C=C2\N=C(c3ccc([N+](=O)[O-])cc3)OC2=O)cc1
5. N#C/C(=C\c1ccc2ccccc2c1)C(=O)c1ccccc1
6. COc1ccc(CCN(C)C2CCC(C#N)(c3ccc(OC)c(OC)c3)CC2)cc1OC (stereo not drawn)
7. COC(=O)/C=C\C(C#N)(C#N)N=Cc1ccc(C)cc1

[out]
1. > 10 µM
2. > 100 µM
3. 9.41 µM
4. > 100 µM
5. > 100 µM
6. > 100 µM
7. 3.8 µM

Hey, quick one: what's TGI for each of these?
1. O=C(/C(=C/c1ccc(Cl)cc1)c1ccccc1)c1ccccc1
2. C#CC1/C(=C\C(=O)OC)CCCC1O (stereo not drawn)
3. O=C(O)COc1ccccc1C(=O)Nc1ccccc1
4. Nc1ccc(N=Nc2c(S(=O)(=O)O)cc3ccccc3c2S(=O)(=O)O)cc1
5. O=C1CC2(CCC(O)(c3ccc4ccccc4c3)C(C(=O)c3ccc4ccccc4c3)C2)C(=O)c2ccccc2N1 (stereo not drawn)
6. O=[N+]([O-])c1ccc2occ3c2c1CCC3

[out]
1: 45.3 µM; 2: > 100 µM; 3: > 100 µM; 4: > 100 µM; 5: > 100 µM; 6: > 100 µM
